Biological target: human muscarinic M4 receptor (Homo sapiens, UniProt P08173)
Construct: expressed in transfected cells
Assay: Alphascreen Surefire phospho-ERK1/2 functional assay, M4
Format: cell-based
Details: CHO cells stably expressing human M4; phospho-ERK1/2; read-out: pEC50 M4 (converted)
measured.parameter: EC50 (nM)
Supply the numeric figure in nM, leaving out any unit text.

Query CCOC(=O)N1CCC2(CC(N3CCC(OC(C)c4ccccc4)CC3)C2)C1 (single isomer, unassigned) [2-66 Isomer 2] yields EC50 of 39.8

Query CCOC(=O)N1CCC2(CC(N3CCC(N(Cc4cnco4)C(C)=O)CC3)C2)C1 (single isomer, unassigned) [2-36 Isomer 2] yields EC50 of 631

Query CCOC(=O)N1CCC2(CC(N3CCC(N(CC)OC)CC3)C2)C1 (single isomer, unassigned) [2-57 Isomer 2] yields EC50 of 39.8

Query CCOC(=O)N1CCC2(CC(N3CCC(N(Cc4ccccc4)CC(F)(F)F)CC3)C2)C1 (single isomer, unassigned) [2-59 Isomer 2] yields EC50 of 79.4

Further cases:
Query CCOC(=O)N1CCC2(CC(N3CCC(N(CC4(C)CCC4)C(C)=O)CC3)C2)C1 (single isomer, unassigned) [Example 2-21 Isomer 2] yields EC50 of 158

Query CCOC(=O)N1CCC2(CC(N3CCC(N(CCO)c4ccccc4)CC3)C2)C1 (single isomer, unassigned) [2-58 Isomer 2] yields EC50 of 251

* * *

Target: human muscarinic M4 receptor (Homo sapiens, UniProt P08173)
Construct: expressed in transfected cells
Sequence (P08173 1-479): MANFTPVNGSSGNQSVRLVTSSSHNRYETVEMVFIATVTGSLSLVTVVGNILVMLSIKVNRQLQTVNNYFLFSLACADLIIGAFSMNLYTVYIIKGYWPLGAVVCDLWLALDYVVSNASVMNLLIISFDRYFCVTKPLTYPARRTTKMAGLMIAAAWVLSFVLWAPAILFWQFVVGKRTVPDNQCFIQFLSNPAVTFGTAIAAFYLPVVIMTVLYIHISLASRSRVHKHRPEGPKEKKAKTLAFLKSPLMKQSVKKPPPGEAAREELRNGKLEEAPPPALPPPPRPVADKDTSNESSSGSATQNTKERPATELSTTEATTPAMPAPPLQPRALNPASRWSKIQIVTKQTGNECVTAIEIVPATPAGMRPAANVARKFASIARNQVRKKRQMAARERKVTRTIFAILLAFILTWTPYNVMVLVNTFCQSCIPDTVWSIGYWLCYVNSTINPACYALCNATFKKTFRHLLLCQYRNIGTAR
Assay: Alphascreen Surefire phospho-ERK1/2 functional assay, M4
Format: cell-based
Conditions: CHO, read-out: % Emax cf. ACh (M4), CHO cells stably expressing human M4; phospho-ERK1/2; relative to ACh
Use 90% as the dividing line for Emax, with the line itself on the T side and lower values as F.

# count of solved cases: 5
Is Emax at least 90%? Consider CCOC(=O)N1CCC2(CC(N3CCC(N(CCF)Cc4cnco4)CC3)C2)C1 (single isomer, unassigned) [2-61 Isomer 2] T

Is Emax at least 90%? Consider CCN(C(C)=O)C1CCN(C2CCC3(C2)CN(C(=O)OC)C3)CC1 (single isomer, unassigned) [3-2 Isomer 2] T

Is Emax at least 90%? Consider CCOC(=O)N1CCC2(CC(N3CCC(N(Cc4ncco4)C(C)=O)CC3)C2)C1 (single isomer, unassigned) [2-37 Isomer 2] F

Is Emax at least 90%? Consider CCOC(=O)N1CCC2(CC(N3CCC(SCc4ccccc4)CC3)C2)C1 (single isomer, unassigned) [2-67 Isomer 2] F

Is Emax at least 90%? Consider CCOC(=O)N1CC2(CC(N3CCC(N(CC)C(C)=O)CC3)C2)C1 [Example 1-2] T

Further cases:
Is Emax at least 90%? Consider CCOC(=O)N1CCC2(CC(N3CCC(N(CC(F)(F)F)C4CC4)CC3)C2)C1 (single isomer, unassigned) [2-48 Isomer 2] F

Is Emax at least 90%? Consider CCOC(=O)N1CCC2(CC(N3CCC(N(Cc4cnco4)CC(F)(F)F)CC3)C2)C1 (single isomer, unassigned) [2-62 Isomer 2] T

* * *

Entries and their EC50
Target: human muscarinic M4 receptor (Homo sapiens)
Construct: expressed in transfected cells
Sequence (P08173 1-479): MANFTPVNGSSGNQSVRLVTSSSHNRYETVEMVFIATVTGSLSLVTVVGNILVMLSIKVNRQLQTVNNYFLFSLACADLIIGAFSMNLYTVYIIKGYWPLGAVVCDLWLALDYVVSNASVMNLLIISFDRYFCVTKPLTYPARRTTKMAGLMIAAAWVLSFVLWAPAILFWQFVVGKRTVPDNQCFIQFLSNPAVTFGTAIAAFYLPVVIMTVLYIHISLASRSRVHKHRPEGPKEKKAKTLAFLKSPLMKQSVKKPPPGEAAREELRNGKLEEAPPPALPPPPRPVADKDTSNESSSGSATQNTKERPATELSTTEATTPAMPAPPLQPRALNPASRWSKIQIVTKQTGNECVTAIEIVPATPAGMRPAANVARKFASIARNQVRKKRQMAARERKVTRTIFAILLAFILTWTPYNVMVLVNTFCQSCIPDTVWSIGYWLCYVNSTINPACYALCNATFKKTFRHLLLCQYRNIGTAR
Experiment: Alphascreen Surefire phospho-ERK1/2 functional assay, M4
Type: cell-based
Conditions: CHO cells stably expressing human M4; phospho-ERK1/2; read-out: pEC50 M4 (converted)
Supply the numeric figure in nM, leaving out any unit text.

Sample records with EC50:
Query CCOC(=O)N1CCC2(CC(N3CCC(N(OC)C(C)=O)CC3)C2)C1 (single isomer, unassigned) [2-32 Isomer 2] yields EC50 of 39.8

Query CCOC(=O)N1CCC2(CC(N3CCC(N(CC(C)(C)OC)C(C)=O)CC3)C2)C1 (single isomer, unassigned) [2-29 Isomer 1] yields EC50 of 1260

Query CCOC(=O)N1CCC2(CC(N3CCC(N(Cc4ncco4)C(C)=O)CC3)C2)C1 (single isomer, unassigned) [2-37 Isomer 2] yields EC50 of 631

Query CCOC(=O)N1CCC2(CC(N3CCC(N(CC)C4COC4)CC3)C2)C1 (single isomer, unassigned) [2-53 Isomer 2] yields EC50 of 251

Query CCOC(=O)N1CC2(CC(N3CCC(N(CC)C(C)=O)CC3)C2)C1 yields EC50 of 251

Further cases:
Query CCOC(=O)N1CCC2(CC(N3CCC(N(CC)C(=O)OC)CC3)C2)C1 (single isomer, unassigned) [2-39 Isomer 2] yields EC50 of 25.1

Query CCOC(=O)N1CCC2(CC(N3CCC(N(C(C)=O)C4(C)CCC4)CC3)C2)C1 (single isomer, unassigned) [2-22 Isomer 2] yields EC50 of 79.4

Query CCOC(=O)N1CCC2(CC(N3CCC(N(CC(C)C)C(C)=O)CC3)C2)C1 (single isomer, unassigned) [2-19 Isomer 2] yields EC50 of 63.1

* * *

Target: human muscarinic M4 receptor (Homo sapiens, UniProt P08173)
Construct: expressed in transfected cells
Test: Alphascreen Surefire phospho-ERK1/2 functional assay, M4
Type: cell-based
Conditions: CHO cells stably expressing human M4; phospho-ERK1/2; read-out: pEC50 M4 (converted)
Entries and their EC50

Query CCOC(=O)N1CCC2(CC(N3CCC(C(C)n4cccn4)CC3)C2)C1 (single isomer, unassigned) [2-65 Isomer 1a] yields EC50 of > 20000 nM

Query CCOC(=O)N1CCC2(CC(N3CCC(N(CC)CCC#N)CC3)C2)C1 (single isomer, unassigned) [2-55 Isomer 2] yields EC50 of 25.1 nM

Query CCOC(=O)N1CCC2(CC(N3CCC(N(C(=O)CC)C4CC4)CC3)C2)C1 (single isomer, unassigned) [2-5 Isomer 2] yields EC50 of 100 nM

Now turn to the next compound.
Query CCOC(=O)N1CCC2(CC(N3CCC(C(C)(C)N(CC)C(C)=O)CC3)C2)C1 (single isomer, unassigned) [2-64 Isomer 2] yields EC50 of 31.6 nM
